target: Progesterone receptor (Homo sapiens); test: Displacement of TAMRA labeled mifepristone at human progesterone receptor in insect cell
Sequence (P06401 whole entry): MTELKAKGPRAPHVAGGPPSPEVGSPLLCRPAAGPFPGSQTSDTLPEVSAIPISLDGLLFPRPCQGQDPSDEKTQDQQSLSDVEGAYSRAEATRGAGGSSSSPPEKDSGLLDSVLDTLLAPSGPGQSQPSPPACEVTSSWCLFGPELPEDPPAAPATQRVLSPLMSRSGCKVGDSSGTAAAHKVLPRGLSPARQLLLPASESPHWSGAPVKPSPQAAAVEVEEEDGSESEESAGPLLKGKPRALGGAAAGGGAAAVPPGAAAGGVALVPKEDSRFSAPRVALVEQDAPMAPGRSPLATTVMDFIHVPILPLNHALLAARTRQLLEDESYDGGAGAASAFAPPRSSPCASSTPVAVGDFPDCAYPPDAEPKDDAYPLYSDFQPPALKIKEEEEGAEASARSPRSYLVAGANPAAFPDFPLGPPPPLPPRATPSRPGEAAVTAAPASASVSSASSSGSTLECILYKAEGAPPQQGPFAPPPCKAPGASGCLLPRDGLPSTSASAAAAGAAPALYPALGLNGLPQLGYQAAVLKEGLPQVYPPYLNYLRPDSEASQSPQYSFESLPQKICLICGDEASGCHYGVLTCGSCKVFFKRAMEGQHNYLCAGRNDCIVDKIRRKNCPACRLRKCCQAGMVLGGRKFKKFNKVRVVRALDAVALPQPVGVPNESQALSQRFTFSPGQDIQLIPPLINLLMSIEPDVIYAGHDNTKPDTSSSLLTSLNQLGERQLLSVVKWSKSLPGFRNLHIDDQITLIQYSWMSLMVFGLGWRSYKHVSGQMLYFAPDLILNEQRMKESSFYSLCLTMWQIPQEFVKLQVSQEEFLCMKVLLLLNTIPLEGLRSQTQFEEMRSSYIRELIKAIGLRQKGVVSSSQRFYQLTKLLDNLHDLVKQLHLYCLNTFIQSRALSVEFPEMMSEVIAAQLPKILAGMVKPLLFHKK
metric: IC50 (nM)

COc1ccc(F)cc1C(C)(C)CC(O)(Cc1ccc(C#N)c2ccccc12)C(F)(F)F (stereo not given) = 325
COc1ccc(F)cc1C(C)(C)CC(O)(Cc1cc(C)cc(C)c1C#N)C(F)(F)F (stereo not given) = 1800
COc1ccc(F)cc1C(C)(C)CC(O)(Cc1cccc(Cl)c1Cl)C(F)(F)F (stereo not given) = 1300
COc1ccc(F)cc1C(C)(C)CC(O)(Cc1ccc(C=O)cc1Cl)C(F)(F)F (stereo not given) = 1800

---

Biological target: Glucocorticoid receptor (Homo sapiens, UniProt P04150)
Sequence (P04150 whole entry): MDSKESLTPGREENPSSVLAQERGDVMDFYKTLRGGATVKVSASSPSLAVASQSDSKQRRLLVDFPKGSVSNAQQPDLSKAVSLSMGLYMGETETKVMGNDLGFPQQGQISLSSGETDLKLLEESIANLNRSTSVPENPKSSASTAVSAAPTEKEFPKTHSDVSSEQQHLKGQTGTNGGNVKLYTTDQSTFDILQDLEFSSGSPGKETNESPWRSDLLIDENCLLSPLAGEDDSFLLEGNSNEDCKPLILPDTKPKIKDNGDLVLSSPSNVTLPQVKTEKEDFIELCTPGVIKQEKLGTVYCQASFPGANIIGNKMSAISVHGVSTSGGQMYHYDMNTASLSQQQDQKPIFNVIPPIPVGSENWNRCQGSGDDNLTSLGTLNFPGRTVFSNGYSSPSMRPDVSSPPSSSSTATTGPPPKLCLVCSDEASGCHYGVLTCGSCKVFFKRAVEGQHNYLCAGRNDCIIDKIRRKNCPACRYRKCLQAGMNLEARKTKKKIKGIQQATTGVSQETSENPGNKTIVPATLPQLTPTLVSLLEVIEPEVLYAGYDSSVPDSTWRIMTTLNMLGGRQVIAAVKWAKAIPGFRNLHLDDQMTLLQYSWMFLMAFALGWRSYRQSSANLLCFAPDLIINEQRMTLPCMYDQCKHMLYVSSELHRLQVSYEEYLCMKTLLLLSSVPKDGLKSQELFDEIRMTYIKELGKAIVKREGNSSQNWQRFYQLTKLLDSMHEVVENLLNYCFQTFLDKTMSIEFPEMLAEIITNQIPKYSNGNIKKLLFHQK
metric: IC50 (nM)

Below are worked cases with known answers.
COc1ccc(F)cc1C(C)(C)CC(O)(Cc1ccc2ccccc2c1)C(F)(F)F (stereo not given) = 275
COc1ccc(F)cc1C(C)(C)CC(O)(Cc1ccc(C=O)cc1Cl)C(F)(F)F (stereo not given) = 19

(I) COc1ccc(F)cc1C(C)(C)CC(O)(Cc1ccccc1C)C(F)(F)F (stereo not given)
(II) COc1ccc(F)cc1C(C)(C)CC(O)(Cc1ccccc1F)C(F)(F)F (stereo not given)
(III) COc1ccc(CC(O)(CC(C)(C)c2cc(F)ccc2OC)C(F)(F)F)cc1 (stereo not given)
(IV) COc1ccc(F)cc1C(C)(C)CC(O)(Cc1cc(Cl)cc(C#N)c1)C(F)(F)F (stereo not given)
(V) COc1ccc(F)cc1C(C)(C)CC(O)(Cc1cc(C)cc(C)c1)C(F)(F)F (stereo not given)
Reorder: IC50, max to min. Put the labels in the requested order and list them out.
III, I, II, V, IV
